- tgt: T1, DcR2-IgG (UniProt Q9UBN6 56-211)
- T1 sequence (Q9UBN6 whole entry, species assumed, looked up): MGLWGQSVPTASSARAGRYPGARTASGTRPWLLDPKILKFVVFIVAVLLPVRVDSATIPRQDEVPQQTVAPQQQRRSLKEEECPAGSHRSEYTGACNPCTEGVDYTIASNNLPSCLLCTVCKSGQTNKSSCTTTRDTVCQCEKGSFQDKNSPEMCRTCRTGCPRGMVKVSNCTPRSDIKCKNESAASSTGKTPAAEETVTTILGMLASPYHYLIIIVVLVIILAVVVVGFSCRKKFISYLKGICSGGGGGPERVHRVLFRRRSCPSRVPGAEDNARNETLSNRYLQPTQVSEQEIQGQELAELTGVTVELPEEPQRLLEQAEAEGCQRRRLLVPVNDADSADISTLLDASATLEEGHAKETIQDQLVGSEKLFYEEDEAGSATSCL
- test description: AlphaQuest (CARB-AQ) displacement of biotinylated Apo2L/TRAIL from receptor-IgG; against Flag-Apo2L.WT
Measured IC50 ratio (mutant/wt) accompanies every entry in the list below.
Provide only the numeric value, understood in ratio.

Take a look at these entries with their results.
Flag.Apo2L.DR4-8 (ligand, not shown: N-terminal flag tag from pFLAG-MAC) VRERGPQRVAAHITGTRGRSNTLSSPNSKNEKALGRKINSWESSRSGHSFLSNLHLRNGELVIHEKGFYYIYSQTAFRFSEEIKEVTRNDKQMVQYIYKWTDYPDPILLMKSARNSCWSKDAEYGLYSIYQGGIFELKENDRIFVSVTNEHLIDMDHEASFFGAFLVG | 15
Flag.Apo2L.DR5-2 (ligand, not shown: N-terminal flag tag from pFLAG-MAC) VRERGPQRVAAHITGTRGRSNTLSSPNSKNEKALGRKINSWESSRSGHSFLSNLHLRNGELVIHEKGFYYIYSQTAFKFKEEIKENTKNDKQMVQYIYKYTSYPDPILLMKSARNSCWSKDAEYGLYSIYQGGIFELKENDRIFVSVTNEHLIDMDHEASFFGAFLVG | 5

With those in mind, consider the next binder.
QUERY: Fill in: IC50 ratio (mutant/wt) of Flag.Apo2L.DR5-23 (ligand, not shown: N-terminal flag tag from pFLAG-MAC) VRERGPQRVAAHITGTRGRSNTLSSPNSKNEKALGRKINSWESSRSGHSFLSNLHLRNGELVIHEKGFYYIYSQTAFKFREEIKENTKNDKQMVQYIYKYTSYPDPILLMKSARNSCWSKDAEYGLYSIYQGGIFELKENDRIFVSVTNESLLDMEHEASFFGAFLVG is ___
RESULT: 24
